- Experimental system: human CYP11B2 (Homo sapiens, UniProt P19099)
- Sequence (P19099 25-503): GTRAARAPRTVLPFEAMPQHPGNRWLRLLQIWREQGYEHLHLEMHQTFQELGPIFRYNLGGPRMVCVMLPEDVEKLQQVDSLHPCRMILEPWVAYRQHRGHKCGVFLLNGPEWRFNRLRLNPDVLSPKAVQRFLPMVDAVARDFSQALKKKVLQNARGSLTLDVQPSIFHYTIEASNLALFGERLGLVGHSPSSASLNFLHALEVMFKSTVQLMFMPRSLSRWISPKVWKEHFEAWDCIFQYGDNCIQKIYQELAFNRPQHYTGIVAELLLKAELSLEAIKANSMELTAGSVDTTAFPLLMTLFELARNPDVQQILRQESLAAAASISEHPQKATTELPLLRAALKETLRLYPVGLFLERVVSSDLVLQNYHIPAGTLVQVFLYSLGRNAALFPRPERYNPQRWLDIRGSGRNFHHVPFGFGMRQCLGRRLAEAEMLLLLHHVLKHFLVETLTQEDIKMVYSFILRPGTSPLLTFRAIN
- Protocol text: Inhibition of hCYP11B2 in transfected V79 cells
- Settings: hamster V79 cells expressing human CYP11B2; substrate 11-deoxycorticosterone 200 nM
Reported metric: IC50 (nM)

* N#Cc1ccc(C(=O)N2CCc3c(-c4ccc(C#N)cc4)cncc32)cc1 | 7.3
* O=C(c1ccccc1F)N1CCc2c(-c3cc4ccccc4[nH]3)cncc21 | 131
* O=C(c1ccc(F)cc1)n1ccc2c(-c3cc4ccccc4s3)cncc21 | 10
* N#Cc1ccc(S(=O)(=O)N2CCSc3c(-c4ccc5ncsc5c4)cncc32)cc1 | 2.8
* N#Cc1ccc(-c2cncc3c2OCCN3C(=O)C2CN(S(=O)(=O)c3cccc([N+](=O)[O-])c3)C2)cc1 | 2
* O=C(c1ccc(F)cc1)n1ccc2c(-c3ccc4ncsc4c3)cncc21 | 29
* N#CN1CC(S(=O)(=O)N2CCSc3c(-c4cc5cc(Cl)ccc5o4)cncc32)C1 | 4.5

A = N#Cc1ccc(S(=O)(=O)N2CCSc3c(-c4cc5cc(Cl)ccc5o4)cncc32)cc1
B = COc1cccc(S(=O)(=O)N2CC(S(=O)(=O)N3CCSc4c(-c5ccc(C#N)cc5)cncc43)C2)c1
Quick one: lower IC50, A or B ? Please respond with the label that marks your chosen entry.
A
(A: 0.4 nM, B: 0.8 nM)

----------
- Experimental system: human CYP11B1 (Homo sapiens)
- Construct: expressed in transfected cells
- Sequence (P15538 25-503): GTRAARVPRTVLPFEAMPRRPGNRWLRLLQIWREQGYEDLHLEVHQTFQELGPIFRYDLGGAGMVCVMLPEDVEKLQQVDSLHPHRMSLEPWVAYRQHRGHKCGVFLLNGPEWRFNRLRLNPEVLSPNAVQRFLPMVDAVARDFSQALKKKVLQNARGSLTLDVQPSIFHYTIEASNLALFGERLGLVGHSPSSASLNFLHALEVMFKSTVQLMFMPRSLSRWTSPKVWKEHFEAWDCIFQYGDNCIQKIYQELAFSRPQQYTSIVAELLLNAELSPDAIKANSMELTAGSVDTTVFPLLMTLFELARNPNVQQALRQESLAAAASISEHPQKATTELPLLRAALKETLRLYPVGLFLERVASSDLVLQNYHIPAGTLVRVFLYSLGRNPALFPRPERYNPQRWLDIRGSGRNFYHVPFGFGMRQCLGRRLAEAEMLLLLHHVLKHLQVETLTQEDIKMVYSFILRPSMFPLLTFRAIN
- Protocol text: Inhibition of hCYP11B1 in transfected V79 cells
- Assay type: cell-based
- Settings: hamster V79 cells expressing human CYP11B1; substrate 11-deoxycortisol 200 nM
pIC50: −log10 of the molar value.
Reported metric: pIC50

Worked cases, pIC50 given:
* N#Cc1ccc(-c2cncc3c2SCCN3S(=O)(=O)c2cccc(Cl)c2)cc1 [S14] | 8.32
* N#Cc1ccc(-c2cncc3c2CCN3C(=O)Cc2ccccc2[N+](=O)[O-])cc1 [C70] | 6.97
* Cc1cccc(CC(=O)N2CCc3c(-c4ccc(C#N)cc4)cncc32)c1 [C66] | 7.04
* N#Cc1ccc(-c2cncc3c2OCCN3S(=O)(=O)c2ccc(F)cc2)cc1 [O2] | 9.25

1 = O=C(c1ccc(F)cc1)n1ccc2c(-c3ccn4ccnc4c3)cncc21 [E39]
2 = N#Cc1ccc(-c2cncc3c2CCN3C(=O)c2cccs2)cc1 [C46]
Larger number for pIC50: 1 , or 2 ? Answer by stating the label of the chosen item.
2
(2: 6.56, 1: 6.17)

I = Cn1cc(S(=O)(=O)N2CCSc3c(-c4cc5cc(Cl)ccc5o4)cncc32)cn1 [S55]
II = N#Cc1ccc(S(=O)(=O)N2CCSc3c(-c4cc5cc(Cl)ccc5o4)cncc32)cc1 [S41]
Of the two listed items, I and II , which carries the larger pIC50 figure? Answer = label.
I
(I: 7.97, II: 7.00)

1 = N#Cc1ccc(-c2cncc3c2SCC(=O)N3C(=O)c2ccc(Cl)cc2)cc1 [S100]
2 = COc1cccc(S(=O)(=O)N2CCc3c(-c4ccc(C#N)cc4)cncc32)c1 [C19]
3 = N#Cc1ccc(-c2cncc3c2OCCN3S(=O)(=O)c2cccc(Cl)c2)cc1 [O7]
4 = N#Cc1ccc(CN2CC(S(=O)(=O)N3CCOc4c(-c5ccc(C#N)cc5)cncc43)C2)cc1 [O121]
5 = N#Cc1ccc(-c2cncc3c2CCN3S(=O)(=O)c2ccc3ccccc3c2)cc1 [C12]
Rank items: key pIC50, increasing. Output spec: a listing of the labels in the requested order.
1, 4, 2, 5, 3
